Listed next: entries and their corresponding pull-down binding Z-score.
Test system: G-clamp-N3 (biotin conjugate)
ASSAY TEXT: pull-down binding Z-score (relative to library population); higher = stronger binding
CONDITION: RNA library: Library-1 (pre-miRNA loops + repeats)
Reply with the value as a number alone.

Some entries whose results are on file:
| CHAIN SEQUENCE | TGT | TEST READOUT | QUANTITATIVE RESULT |
| --- | --- | --- | --- |
| AGAUCUAUGUCAUAUAUACAGAUAU [hsa-mir-3924] | G-clamp-N3 (biotin conjugate) | pull-down binding Z-score | -0.51 |
| UGUGUGUACUCACAGCCCCUCACACA [hsa-mir-942] | G-clamp-N3 (biotin conjugate) | pull-down binding Z-score | -0.624 |
| UGUUCAUUCACAUGAUCAUAAGUGGACA [hsa-mir-4643] | G-clamp-N3 (biotin conjugate) | pull-down binding Z-score | 0.373 |
| UGUGGACAAGGGCCUUGUCUUAGACAGUCACU [hsa-mir-4318] | G-clamp-N3 (biotin conjugate) | pull-down binding Z-score | -0.432 |
| CUCGGCCAUCCUCCGUCUGCCCAG [hsa-mir-935] | G-clamp-N3 (biotin conjugate) | pull-down binding Z-score | -1.08 |

Let's switch to this sequence now.
The measured pull-down binding Z-score associated with GUGUACAGGGAGGAGACUGUACGUGAGAGAUAGUCAGAUCCGCAUGUUAGAGCAGAGUCUCCUUCGUGUACAG [hsa-mir-4441] reads 0.459

###

Each entry below carries its reported pull-down binding Z-score.
Tested on: G-clamp-N3 (biotin conjugate)
ASSAY TEXT: pull-down binding Z-score (relative to library population); higher = stronger binding
CONDITION: RNA library: Library-1 (pre-miRNA loops + repeats)
Provide a numeric answer; units are not to be included.

| CHAIN SEQUENCE | pull-down binding Z-score |
| --- | --- |
| UGGGAGUGAUCCCAACAGCUGAGCUCCCU [hsa-mir-7106] | 0.114 |
| AUGAGCUAAAAAUCCCCAAGCUCU [hsa-mir-4769] | -0.0764 |
| GAACCCAAGAAAAGCUGACUUGGAGGUCCC [hsa-mir-4667] | -0.432 |

We now examine a further sequence.
The recorded pull-down binding Z-score for UAGGCUGUGCAGGUCCCAAUGGGCCUA [hsa-mir-26a-1] is 1.56

###

System: TO-N3 (biotin conjugate)
ASSAY TEXT: pull-down binding Z-score (relative to library population); higher = stronger binding
CONDITION: RNA library: Library-2
Would you mind labelling by pull-down binding Z-score? At or over -0.2 is True, under is False.

// known answers, use as guide
| CHAIN SEQUENCE | TGT | ASSIGNED LABEL |
| --- | --- | --- |
| GCUGGUGCACUUGCCAGU [IAV_invivo_M1_M2_7_Motif_8+IAV_invivo_M1_M2_7_Motif_8] | TO-N3 (biotin conjugate) | False |
| GUACCUCAAGCUGAUGUAGAAUGGAAGUUCUAUGAUGCACAGCCUUGUAGUGAC [SHAPE_invitro_SARS-CoV-2_Motif_348] | TO-N3 (biotin conjugate) | True |
| GUGUAUGCUGCUGACCCUGCUAUGCACGCUGCUUCUGGUAAUCUAUUACUAGAUAAACGCACUACGUGCUUUUCAGUAGCUGCAC | TO-N3 (biotin conjugate) | True |
| GUUGGGAUUGAGUUUUGAACUCGGC [hsa-mir-196a-2] | TO-N3 (biotin conjugate) | True |

-- ask Confirm if pull-down binding Z-score reported for the sequence GGCAUCAGAGGACAGCCGCCUGGUGCC [hsa-mir-4641] is -0.2 or above.
-- reply True

-- ask In plain terms: is recorded pull-down binding Z-score at least -0.2 for ACUUUCUGUUUGAAAGAAAACAAAGU [hsa-mir-519e] ?
-- reply False

-- ask Reported pull-down binding Z-score at or above -0.2? GCUCCCAACCAACCACUUCCACAUGUUUUGCUGGU [hsa-mir-4451]
-- reply True

-- ask Please tell me: is the sequence UGUUCGUUUUGCUCAUGUCGAAUC [hsa-mir-487b] at or over -0.2 in terms of pull-down binding Z-score?
-- reply False

-- ask Could you please find out whether CCAAUGGUAUCCAGUGAUUCGUUGA [hsa-mir-4709] has pull-down binding Z-score that meets -0.2 or exceeds it?
-- reply True

-- ask Could you please find out whether GGAUGGUUACAGGACUAAGGAACAAUCCGUCC [IAV_invivo_HA_4_Motif_14+IAV_invivo_HA_4_Motif_14] has pull-down binding Z-score that meets -0.2 or exceeds it?
-- reply False

-- ask Quick check, pull-down binding Z-score >= -0.2? CUCACAUGGAGUAAAAUAUGAU [hsa-mir-3134]
-- reply True

-- ask For this sequence, is measured pull-down binding Z-score -0.2 or higher? UGGGGAUCACAACUCA [IAV_invivo_PB1_2_Motif_11+IAV_invivo_PB1_2_Motif_11]
-- reply True

-- ask # bool: pull-down binding Z-score of GUUGUUACUCACAAUUUUGACUUCACUUUUAGUUUUAGUCCAGAGUACUCAAU >= -0.2
-- reply False

-- ask I'd appreciate it if you could say whether GCAGACUUCAAAGUUUGC has pull-down binding Z-score at least equal to -0.2.
-- reply True

-- ask I'd appreciate it if you could say whether UUAUUCAGAGAGGCUAGAUCCUCUGUGUUGAGAAGGAUCA [hsa-mir-433] has pull-down binding Z-score at least equal to -0.2.
-- reply True

-- ask Is the recorded value of pull-down binding Z-score equal to or greater than -0.2 for this sequence? CUCAUGUAAACUAAAACAUGAU [hsa-mir-508]
-- reply False

-- ask Hello, I need to know if UUGUGGCAAUACAG [hsa-mir-8068] has measured pull-down binding Z-score not below -0.2. Thanks!
-- reply False

-- ask Can UAUUAUUGCUAUGUCUGCUUUUGCAAUGAUG be said to have pull-down binding Z-score at or above -0.2?
-- reply False

-- ask Is the recorded value of pull-down binding Z-score equal to or greater than -0.2 for this sequence? ACACGGUGUUUAAACCGUGU
-- reply True

-- ask Is pull-down binding Z-score at least -0.2? Consider CUACAAAGCAACCAUGAUCUGUAUUGUCAAGUCCAUGGUAAUGCACAUGUAG
-- reply False

-- ask API: above_or_equal(metric=pull-down binding Z-score, cutoff=-0.2) for item AGUGAGCUGAGAUCACGCAACU [hsa-mir-1273f]
-- reply True
